Entry source: the supplement of paper PMC10126150

Test system: ATP;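 further: ATP exposure 15 min at 22 °C before imaging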
run.description: switch fluorescence ratio, 500 uM ATP over buffer (Cy3 cluster intensity, sum of 5 cycles each) (fold (ratio)); higher = stronger signal-on switching upon ATP binding; sequences stand for … in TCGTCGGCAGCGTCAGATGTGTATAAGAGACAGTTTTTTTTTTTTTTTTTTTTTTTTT…TC
cond: aptamer strand: ATP DNA aptamer (quencher-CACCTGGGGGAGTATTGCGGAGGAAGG + anchor), 100 nM annealed; ATP concentration: 500 uM
reported.endpoint: switch fluorescence ratio
A bare number is all that is needed in reply.

Ask: Indicate the recorded switch fluorescence ratio value for this sequence: ACCGTGTCGT
Reply: 0.989

Ask: Indicate the recorded switch fluorescence ratio value for this sequence: CATAAAGATG
Reply: 1.05
